tested on: SK-MEL-28 melanoma; assay: NCI tumour cell line growth inhibition, 48 h

- COMPOUND: "Cc1cc(C#Cc2ccccc2)ccc1-n1c(/C=C/c2cc(O)ccc2O)nc2ccccc2c1=O"
  GI50: "1.53 µM"
- COMPOUND: "CNCCN(C)Cc1cn[nH]c1-c1ccc(OC2CC(OCCC3CCOCC3)C2)cc1 (stereo not given)"
  GI50: "> 67.9 µM"
- COMPOUND: "CC[C@@]1(O)C(=O)NCc2c1cc1n(c2=O)Cc2cc3c(NC(C)=O)cccc3nc2-1"
  GI50: "> 100 µM"
- COMPOUND: "COC(=O)[C@]12CC[C@@H](C)[C@H](C)[C@@H]1C1=CC[C@@H]3[C@@]4(C)CC(=O)[C@H](O)[C@@](C)(CO)[C@@H]4C(=O)C[C@@]3(C)[C@]1(C)CC2"
  GI50: "14.6 µM"
- COMPOUND: "CCOC(=O)c1cc(-c2ccccc2)[nH]c1N/N=C/c1c(Cl)cccc1Cl"
  GI50: "3.35 µM"

###

tested on: SK-MEL-2 melanoma; test: NCI tumour cell line growth inhibition, 48 h

- COMPOUND: "N#Cc1c(N)c(C#N)c2c(c1-c1ccc(Cl)cc1)COc1ccc(F)cc1-2"
  GI50: "> 50 µM"
- COMPOUND: "Fc1ccc(-c2c(-c3ccncc3)[nH]c3nccnc23)cc1"
  GI50: "13.6 µM"
- COMPOUND: "CC/C(=N/N=C(N)N)c1ccc(NC(=O)Nc2ccc(/C(CC)=N/N=C(N)N)cc2)cc1"
  GI50: "4.03 µM"
- COMPOUND: "Cc1cc2c(cc1Cl)SC(C(=O)c1ccc(Cl)c(Cl)c1)NS2(=O)=O (stereo not given)"
  GI50: "40.2 µM"
- COMPOUND: "COc1cc(NC(=O)c2ccccc2Nc2ccnc(C(F)(F)F)c2)cc(OC)c1OC"
  GI50: "51.1 µM"

###

tested on: HS 578T breast; test: NCI tumour cell line growth inhibition, 48 h
*1 amine or outer side, *2 acyl side, *3 side chain or, on linkers, in order; H or OH if unused. Where a SMILES comes first, the peptide text is derived from it. [ ]: non-standard residue; d: D form. The star is where a group is joined. Phe(4-NO2) = N[CH](Cc1ccc([N+](=O)[O-])cc1)C(=O)O; γGlu = O=C(O)[CH](CCC(=O)[*:2])N[*:1]; Boc = CC(C)(C)OC(=O)*; NHOH = ON*
METRIC: TGI

- MOLECULE: "COC(=O)C(/C(=N/N)C(=O)Nc1cccc(O)c1)c1nc2ccccc2[nH]c1=O (stereo unspecified)"
  METRIC: "TGI"
  RESULT: "> 100 µM"
- MOLECULE: "COC(=O)CCC(NC(=O)OC(C)(C)C)C(=O)NC(Cc1ccc([N+](=O)[O-])cc1)C(=O)NC(CCC(=O)OC)C(=O)OC (stereo unspecified) (Boc-Glu(OMe)-[Phe(4-NO2)]-Glu(OMe)-OMe; configuration not given here)"
  METRIC: "TGI"
  RESULT: "> 100 µM"
- MOLECULE: "N#CC1=C(N)OC(c2cccc([N+](=O)[O-])c2)C1(C#N)C#N (stereo unspecified)"
  METRIC: "TGI"
  RESULT: "> 100 µM"
- MOLECULE: "CC12CC(=O)C3C(CCC4=CC(=O)CCC43C)C1CC=C2CC(=O)O (stereo unspecified)"
  METRIC: "TGI"
  RESULT: "> 100 µM"
- MOLECULE: "C=C(CO)[C@H]1Oc2ccc(C(C)=O)cc2[C@@H]1O"
  METRIC: "TGI"
  RESULT: "> 100 µM"
- MOLECULE: "O=C(Nc1ccccc1)Nc1ccc(Cl)c(Cl)c1"
  METRIC: "TGI"
  RESULT: "29 µM"
- MOLECULE: "COc1ccc2c(c1)CCc1c-2n(CCN2CCOCC2)c2ccc(OC)cc12"
  METRIC: "TGI"
  RESULT: "> 100 µM"
- MOLECULE: "N=C1/C(=C2\\Nc3ccccc3S2)CC(=O)N1c1ccc(SC(F)F)cc1"
  METRIC: "TGI"
  RESULT: "29.2 µM"
- MOLECULE: "CCOC(=O)CNC(=O)C(CCC(=O)NO)NC(=O)CCC(N)C(=O)O (stereo unspecified) (γGlu-Glu(NHOH)-Gly-OEt; configuration not given here)"
  METRIC: "TGI"
  RESULT: "> 100 µM"
- MOLECULE: "NNc1ncc2c(n1)-c1ccccc1OC2"
  METRIC: "TGI"
  RESULT: "> 100 µM"
- MOLECULE: "CCCCCCSc1nc(COC(=O)NC)c(COC(=O)NC)n1C"
  METRIC: "TGI"
  RESULT: "> 100 µM"
- MOLECULE: "CO/N=C(\\C)c1cccc(Nc2nc3ccccc3c3occc23)c1"
  METRIC: "TGI"
  RESULT: "27.2 µM"
- MOLECULE: "O=C1N(CN2CCOCC2)CN(CN2CCOCC2)C(=O)N1Cc1ccc(CN2C(=O)N(CN3CCOCC3)CN(CN3CCOCC3)C2=O)cc1"
  METRIC: "TGI"
  RESULT: "> 100 µM"
- MOLECULE: "COC(=O)N/N=C(\\c1ccccc1)c1ccc(OC)cc1"
  METRIC: "TGI"
  RESULT: "> 100 µM"
- MOLECULE: "N=C(N)c1ccc(-c2ccc(-c3ccc(Cl)c(Cl)c3)o2)cc1"
  METRIC: "TGI"
  RESULT: "5.52 µM"
- MOLECULE: "COc1c2ccccc2c(O)c2c(=O)ccn(C)c12"
  METRIC: "TGI"
  RESULT: "61.5 µM"
- MOLECULE: "O=C(CSc1ncc(-c2ccccc2)n1-c1ccccc1)Nc1ccc(-c2nc3ccccc3s2)cc1"
  METRIC: "TGI"
  RESULT: "80.8 µM"
- MOLECULE: "Cc1cc(C#Cc2ccccc2)ccc1-n1c(/C=C/c2cc(O)ccc2O)nc2ccccc2c1=O"
  METRIC: "TGI"
  RESULT: "7.95 µM"
- MOLECULE: "COc1ccc(-c2nc3sccn3c2-c2ccnc(NCCCNS(=O)(=O)c3ccc(F)cc3)n2)cc1"
  METRIC: "TGI"
  RESULT: "9.03 µM"
- MOLECULE: "O=c1c2cc(S(=O)(=O)Nc3ccc(Cl)cc3Cl)ccc2ncn1NS(=O)(=O)c1cccc2ccccc12"
  METRIC: "TGI"
  RESULT: "> 100 µM"
- MOLECULE: "Cn1ccoc1=Nc1ccc(Cl)c(Cl)c1"
  METRIC: "TGI"
  RESULT: "> 10 µM"
- MOLECULE: "C=C1C(=O)C2(C)OC2(C)C1C(=O)O (stereo unspecified)"
  METRIC: "TGI"
  RESULT: "> 100 µM"
- MOLECULE: "c1c2c(cc3c1OCO3)-c1cc3ccc4c(c3c[n+]1CC2)OCO4"
  METRIC: "TGI"
  RESULT: "> 12.5 µM"
- MOLECULE: "CCCc1n(Cc2ccc3ccccc3n2)cc[n+]1Cc1ccc2ccccc2n1"
  METRIC: "TGI"
  RESULT: "23 µM"
- MOLECULE: "Cc1ccc(/C=C2\\NC(=S)N(CN3CCCCC3)C2=O)cc1"
  METRIC: "TGI"
  RESULT: "> 100 µM"
- MOLECULE: "CNCCN(C)Cc1cn[nH]c1-c1ccc(OC2CC(OCCC3CCOCC3)C2)cc1 (stereo unspecified)"
  METRIC: "TGI"
  RESULT: "> 100 µM"
- MOLECULE: "Nc1nnc2oc3ccc4ccccc4c3cc1-2"
  METRIC: "TGI"
  RESULT: "> 100 µM"
- MOLECULE: "COc1cc(/C=C/c2ccccn2)cc(OC)c1OC"
  METRIC: "TGI"
  RESULT: "> 10 µM"
- MOLECULE: "c1ccc([P+](c2ccccc2)(c2ccccc2)c2ccc(-c3ccc([P+](c4ccccc4)(c4ccccc4)c4ccccc4)cc3)cc2)cc1"
  METRIC: "TGI"
  RESULT: "> 100 µM"
- MOLECULE: "Cc1cccc(C)c1N1C(=O)C2c3[nH]c4ccccc4c3C3CCC(C(C)(C)C)CC3C2C1=O (stereo unspecified)"
  METRIC: "TGI"
  RESULT: "44 µM"
- MOLECULE: "COc1cc([N+](=O)[O-])ccc1N1C(=O)C2c3[nH]c4ccccc4c3C3CCC(C(C)(C)C)CC3C2C1=O (stereo unspecified)"
  METRIC: "TGI"
  RESULT: "43.4 µM"
- MOLECULE: "CCc1ccc([O-])c(C=NCCCN(C)CCCN=Cc2cc(C)ccc2[O-])c1.[Co+3].[N-]=[N+]=[N-]"
  METRIC: "TGI"
  RESULT: "50 µg/mL"
- MOLECULE: "COc1cc(-c2nn(-c3cccc(NC(=O)CCN4CCN(C)CC4)c3)cc2-c2ccncc2)ccc1Cl"
  METRIC: "TGI"
  RESULT: "6.39 µM"
- MOLECULE: "CC1OC(OCC2OC(Oc3ccc(C4CC(=O)c5c(O)cc(O)cc5O4)cc3O)C(O)C(O)C2O)C(O)C(O)C1O (stereo unspecified)"
  METRIC: "TGI"
  RESULT: "> 100 µM"
- MOLECULE: "COc1cc2c(cc1O)C1CC(CC3CCCCN31)OC(=O)/C=C\\c1ccc(O)c-2c1 (stereo unspecified)"
  METRIC: "TGI"
  RESULT: "57.5 µM"
- MOLECULE: "COc1ccc(/C=C2\\CCc3cc(OC)c(OC)cc3C2=O)cc1"
  METRIC: "TGI"
  RESULT: "> 10 µM"
